Assayed System: RecQ-like DNA helicase BLM (Homo sapiens) (UniProt P54132)
Sequence (P54132 whole entry, looked up): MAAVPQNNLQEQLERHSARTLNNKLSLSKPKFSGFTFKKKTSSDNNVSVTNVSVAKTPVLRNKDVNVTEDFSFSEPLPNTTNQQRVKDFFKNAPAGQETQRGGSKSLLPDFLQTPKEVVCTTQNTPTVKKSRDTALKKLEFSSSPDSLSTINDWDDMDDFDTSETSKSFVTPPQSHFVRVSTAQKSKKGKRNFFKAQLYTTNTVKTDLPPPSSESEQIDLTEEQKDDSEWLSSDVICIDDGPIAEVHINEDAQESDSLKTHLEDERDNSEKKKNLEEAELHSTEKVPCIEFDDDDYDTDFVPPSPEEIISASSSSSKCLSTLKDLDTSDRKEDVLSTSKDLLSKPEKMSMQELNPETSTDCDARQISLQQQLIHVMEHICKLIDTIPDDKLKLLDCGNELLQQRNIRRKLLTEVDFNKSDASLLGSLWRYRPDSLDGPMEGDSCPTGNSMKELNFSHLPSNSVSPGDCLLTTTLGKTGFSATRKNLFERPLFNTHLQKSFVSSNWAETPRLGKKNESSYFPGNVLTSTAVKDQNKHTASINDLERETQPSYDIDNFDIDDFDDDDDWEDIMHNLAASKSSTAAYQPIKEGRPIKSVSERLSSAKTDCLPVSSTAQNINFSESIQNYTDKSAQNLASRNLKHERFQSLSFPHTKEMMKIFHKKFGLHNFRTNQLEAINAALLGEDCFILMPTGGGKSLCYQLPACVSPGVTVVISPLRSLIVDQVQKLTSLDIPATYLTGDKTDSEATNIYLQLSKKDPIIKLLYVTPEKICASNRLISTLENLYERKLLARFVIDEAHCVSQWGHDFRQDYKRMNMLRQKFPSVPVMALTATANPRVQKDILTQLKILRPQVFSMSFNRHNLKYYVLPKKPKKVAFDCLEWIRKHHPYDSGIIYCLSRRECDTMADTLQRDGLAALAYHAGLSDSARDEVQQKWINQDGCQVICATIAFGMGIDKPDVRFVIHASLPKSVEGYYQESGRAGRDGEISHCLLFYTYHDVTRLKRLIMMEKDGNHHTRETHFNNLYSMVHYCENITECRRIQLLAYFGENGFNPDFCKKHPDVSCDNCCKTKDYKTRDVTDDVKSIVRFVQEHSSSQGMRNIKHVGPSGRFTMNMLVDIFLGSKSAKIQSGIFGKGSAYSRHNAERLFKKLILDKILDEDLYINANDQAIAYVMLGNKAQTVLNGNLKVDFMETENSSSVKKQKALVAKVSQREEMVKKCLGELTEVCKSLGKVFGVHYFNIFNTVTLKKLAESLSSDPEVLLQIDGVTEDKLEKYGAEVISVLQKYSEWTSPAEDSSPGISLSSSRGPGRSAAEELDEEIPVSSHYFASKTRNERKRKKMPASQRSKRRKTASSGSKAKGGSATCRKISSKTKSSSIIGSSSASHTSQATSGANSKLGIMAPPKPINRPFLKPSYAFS
Experiment Notes: qHTS Validation Assay for Inhibitors of Bloom's syndrome helicase (BLM) (AID 2364)
Recorded Conditions: BLM helicase DNA unwinding, fluorescence, in vitro; series mostly up to 57.1 µM
Results filed as inconclusive are left out. Calls of active or inactive are those of the source. The call rests on the fitted dose curve; in most records, active means well fitted inhibition curve with a large enough effect; inconclusive means small, poorly fitted or top-dose-only effect; inactive means no such curve, though single readings can be large or run the other way.
Labels: yes (active), no (inactive)

Compound: CN1CCN(CC/C=C2/c3ccccc3Sc3ccc(S(=O)(=O)N(C)C)cc32)CC1
Assayed System: RecQ-like DNA helicase BLM (Homo sapiens) (UniProt P54132)
Class Label: no
--
Compound: C=C[C@@H]1CN2CC[C@@H]1C[C@@H]2[C@H](O)c1ccnc2ccc(OC)cc12
Assayed System: RecQ-like DNA helicase BLM (Homo sapiens) (UniProt P54132)
Class Label: no
--
Compound: C[C@H]1c2cccc(O)c2C(O)=C2C(=O)[C@]3(O)C(O)=C(C(N)=O)C(=O)C(N(C)C)[C@@H]3[C@@H](O)C21 (some centres undefined)
Assayed System: RecQ-like DNA helicase BLM (Homo sapiens) (UniProt P54132)
Class Label: no
--
Compound: N#CC(Cc1ccc(O)c(O)c1)C(=O)N1CCc2ccccc21 (centres undefined)
Assayed System: RecQ-like DNA helicase BLM (Homo sapiens) (UniProt P54132)
Class Label: yes

---

Assayed System: Rap guanine nucleotide exchange factor 3 (Homo sapiens) (UniProt O95398)
Sequence (O95398 whole entry, looked up): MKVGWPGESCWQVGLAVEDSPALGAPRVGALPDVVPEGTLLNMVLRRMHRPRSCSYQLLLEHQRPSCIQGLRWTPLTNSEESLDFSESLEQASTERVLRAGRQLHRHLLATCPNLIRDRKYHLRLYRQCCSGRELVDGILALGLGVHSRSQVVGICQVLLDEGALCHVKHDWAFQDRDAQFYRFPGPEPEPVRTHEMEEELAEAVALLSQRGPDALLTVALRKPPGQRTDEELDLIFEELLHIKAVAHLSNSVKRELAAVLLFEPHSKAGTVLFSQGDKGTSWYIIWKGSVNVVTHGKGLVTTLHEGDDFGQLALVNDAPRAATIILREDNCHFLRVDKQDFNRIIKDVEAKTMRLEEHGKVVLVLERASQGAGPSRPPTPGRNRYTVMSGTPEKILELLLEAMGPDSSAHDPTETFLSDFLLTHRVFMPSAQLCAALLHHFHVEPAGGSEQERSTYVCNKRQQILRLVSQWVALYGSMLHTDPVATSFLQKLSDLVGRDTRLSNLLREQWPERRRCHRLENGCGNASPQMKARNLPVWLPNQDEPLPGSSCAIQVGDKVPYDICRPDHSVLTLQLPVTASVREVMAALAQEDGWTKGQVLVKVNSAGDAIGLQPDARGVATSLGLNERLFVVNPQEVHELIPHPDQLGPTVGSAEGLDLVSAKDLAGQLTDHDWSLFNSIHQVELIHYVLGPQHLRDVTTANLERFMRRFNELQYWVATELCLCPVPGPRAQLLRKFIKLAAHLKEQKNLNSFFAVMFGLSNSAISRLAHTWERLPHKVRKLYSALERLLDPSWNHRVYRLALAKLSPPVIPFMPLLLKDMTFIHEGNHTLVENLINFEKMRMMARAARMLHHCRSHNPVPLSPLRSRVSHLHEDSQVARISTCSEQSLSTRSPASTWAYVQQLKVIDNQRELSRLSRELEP
Experiment Notes: Confirmatory qHTS for antagonist of cAMP-regulated guanine nucleotide exchange factor 3 (EPAC1) (AID 1645880); further: nearly all actives have a fitted effect of over 55% in size
Recorded Conditions: EPAC1 Rap1B-BODIPY-GDP exchange, fluorescence
Inconclusive results are not listed. The source made the active and inactive calls. Calls follow the shape of the dose curve; as a rule, active = well fitted inhibition curve with a large enough effect; inconclusive = small, poorly fitted or top-dose-only effect; inactive = no such curve, though single readings can be large or run the other way.
Labels: active, inactive

Molecule: Cc1nc2cc(-c3ccsc3-n3c(C)ccc3C)[nH]n2c(=O)c1Cl
Class Label: active
--
Molecule: CCOc1ccc(/C=C2\SC(=S)NC2=O)cc1OC
Class Label: active
--
Molecule: O=C1COc2ccc(C(=O)COC(=O)c3ccc([N+](=O)[O-])cc3Cl)cc2N1
Class Label: inactive
--
Molecule: O=C(OCCN1C(=O)c2cccc3c(N4CCOCC4)ccc(c23)C1=O)c1ccc(Cl)cc1Cl
Class Label: inactive
--
Molecule: Cc1ccc(-n2nc3c(=O)n(CCCC(=O)NCc4ccc(F)cc4)nc(C)c3c2C)cc1
Class Label: inactive
--
Molecule: CCC(=O)N1CCc2cc(CNC(=O)c3ccccc3C)ccc21
Class Label: inactive
--
Molecule: COc1ccccc1CNc1cc(C)nc2nc(-c3ccc(C)cc3)nn12
Class Label: inactive
--
Molecule: O=C(O)CSc1cc(C(=O)c2ccccc2O)cn2c(=O)c3c(-c4ccccc4)csc3nc12
Class Label: inactive
--
Molecule: COc1cccc(OC)c1C(=O)NC(=S)NNC(=O)[C@H]1C[C@@H]1c1ccccc1
Class Label: inactive
--
Molecule: CN(C)c1ccc2nc3c(=O)[nH]c(=O)nc-3n(CC(O)C(O)C(O)CO)c2c1 (stereo not drawn)
Class Label: inactive
--
Molecule: CCOC(=O)N1CCC2CC1c1cc(-c3cccc(OC)c3)ccc12 (stereo not drawn)
Class Label: inactive
--
Molecule: Cc1ccccc1SCC(=O)Nc1cc(C(F)(F)F)ccc1N1CCOCC1
Class Label: inactive
--
Molecule: CC1CCCN(C2(O)C(=O)Nc3c(C(F)(F)F)cccc32)C1 (stereo not drawn)
Class Label: inactive
--
Molecule: CNc1nc(C)cc(C)c1S(=O)(=O)c1ccc(C)cc1
Class Label: inactive
--
Molecule: CCN1C(=O)C(=CC=CN(C)c2ccccc2)SC1=S
Class Label: inactive
--
Molecule: COc1ncc2nc(-c3ccccc3)c(=O)n(Cc3cccs3)c2n1
Class Label: inactive
--
Molecule: Cc1ccc(S(=O)(=O)N2CC(C(=O)O)=CC[C@H]2c2ccc(Cl)cc2)cc1
Class Label: inactive
--
Molecule: O=C(/C=C/c1ccco1)NCC1OCCc2ccccc21 (stereo not drawn)
Class Label: active
--
Molecule: CC(C)CCn1c(Oc2ccc(Cl)cc2)nc2c1c(=O)n(C)c(=O)n2C
Class Label: inactive
--
Molecule: CC1(Cc2ccccc2OC(F)(F)F)C(=O)Nc2ccc(-c3ccsc3)cc21 (stereo not drawn)
Class Label: active
--
Molecule: COc1ccccc1NC(=O)Cc1ccc(-c2ccccc2)cc1
Class Label: inactive
--
Molecule: O=C(NCCc1ccccc1)c1ccc2c(=O)[nH]c3c(C(=O)NCC4CCCO4)sc(=S)n3c2c1 (stereo not drawn)
Class Label: active
--
Molecule: Cn1cc(/C=C2\SC(=S)N(NC(=O)c3ccccc3Cl)C2=O)c2ccccc21
Class Label: inactive
--
Molecule: Cc1noc(C)c1S(=O)(=O)Nc1ccc2c(c1)C(=O)N([C@@H](C)CO)C[C@@H](C)[C@@H](CN(C)CC1CCCCC1)OCCCC[C@@H](C)O2
Class Label: inactive
--
Molecule: COc1ccc2c(c1)CCc1c(C(=O)N(C)c3ccccc3)noc1-2
Class Label: inactive
--
Molecule: CC(=O)Nc1ccc(NC(=O)C2Cc3c(-c4ccc5c(c4)OCO5)ccnc3O2)cc1 (stereo not drawn)
Class Label: inactive
--
Molecule: CCC(Oc1ccccc1)C(=O)Nc1ccccc1N1CCCCC1 (stereo not drawn)
Class Label: inactive
--
Molecule: O=C(OCCN1C(=O)c2cccc3c(N4CCOCC4)ccc(c23)C1=O)c1cccc(Cl)c1
Class Label: inactive
--
Molecule: Cc1ccn2c(=O)c(NC(=O)c3ccc(Br)o3)c(C)nc2c1
Class Label: inactive
--
Molecule: O=C(c1ccco1)N(Cc1ccccc1)c1cccc([N+](=O)[O-])c1
Class Label: inactive
--
Molecule: O=C(c1cccs1)N(Cc1cccnc1)c1nc2c(Cl)cccc2s1
Class Label: inactive
--
Molecule: CC(=O)c1cc(CC(=O)N2CCc3c([nH]c4ccccc34)C2c2ccccn2)cs1 (stereo not drawn)
Class Label: inactive
--
Molecule: Oc1ccc(/C=N/Nc2ncnc3nc[nH]c23)cc1
Class Label: inactive
--
Molecule: CCNc1ccc2noc3c2c1C(=O)c1ccccc1-3
Class Label: inactive
--
Molecule: COc1ccc(C2OCC3(COC(C)=O)C(C)C=C(C)C2C3C)cc1 (stereo not drawn)
Class Label: inactive
--
Molecule: CC(=O)c1cc(C#N)c(N(C)Cc2ccccc2)nc1C
Class Label: inactive
--
Molecule: O=c1oc2c3c4c(cc2c(C(F)(F)F)c1CCN1CCOCC1)CCCN4CCC3
Class Label: inactive
--
Molecule: CCC(CC)C(=O)N1c2ccccc2C(C)(c2ccccc2)CC1(C)C (stereo not drawn)
Class Label: inactive
--
Molecule: CCOc1ccc(S(=O)(=O)Nc2cc(SCC(=O)O)c(O)c3ccccc23)cc1
Class Label: active
--
Molecule: N#CC(C#N)=C1C=C2C=C(N3CCOCC3)CCC2CC1 (stereo not drawn)
Class Label: inactive
--
Molecule: CCOc1cc(CNc2ccc(O)cc2)ccc1OCc1ccc(Cl)cc1
Class Label: active
--
Molecule: COc1ccc2ccc3c(c2c1)N=C[C@]1(O3)N(C)c2ccccc2C1(C)C
Class Label: inactive
--
Molecule: CN(C)c1ccc(/C=C/c2c3c(nc4ccccc24)CCCC3)cc1
Class Label: inactive

---

Assayed System: Mitogen-activated protein kinase 10 (Mus musculus) (UniProt Q61831)
Experiment Notes: JNK3 AlphaScreen Assay (AID 530);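 further: kinase came from lysate of stimulated human HepG2 cells; signal reports phosphorylation of biotinylated GST-cJun 1-79 at Ser73 with 10 µM ATP; on the % scale 0 is the no-effect control and ±100 the full control effect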
Recorded Conditions: JNK3 lysate, c-Jun phosphorylation; series mostly up to 57.1 µM
Text: NIH Chemical Genomics Center [NCGC] NIH Molecular Libraries Screening Centers Network [MLSCN] The c-jun N-terminal kinase (JNK) family are serine/threonine protein kinases that phosphorylate c-jun, a component of the transcription factor protein-1 (AP-1). […] A homogeneous AlphaScreen is developed to measure the activity of JNK3. […] The phosphorylation of a biotinylated c-jun substrate by JNK3 can be detected with an antibody raised against phosphorylated c-jun. […]
Results filed as inconclusive are left out. The source made the active and inactive calls. Calls come from the whole dose curve; as a rule, active = well fitted curve in either direction with a large enough effect (not every such curve was filed as active); inconclusive = small, poorly fitted or top-dose-only effect, or another doubt; inactive = flat fitted curve, though single readings scatter.

Compound: N=C(N)c1ccc(N=Nc2c(O)ccc3c2[nH]c2ccccc23)cc1
Assayed System: Mitogen-activated protein kinase 10 (Mus musculus) (UniProt Q61831)
activity change, negative = inhibition: -6.35% [at 11.4 µM] (inactive)
//
Compound: CCC(C)c1ccccc1O (stereo not drawn)
Assayed System: Mitogen-activated protein kinase 10 (Mus musculus) (UniProt Q61831)
activity change, negative = inhibition: inactive
//
Compound: Cc1c(N=C=O)cccc1N=C=O
Assayed System: Mitogen-activated protein kinase 10 (Mus musculus) (UniProt Q61831)
activity change, negative = inhibition: inactive
//
Compound: CNc1ncncc1-c1ccccc1CN(C)C
Assayed System: Mitogen-activated protein kinase 10 (Mus musculus) (UniProt Q61831)
activity change, negative = inhibition: inactive
//
Compound: CN1CCN(c2ncc3nc(CCc4ccccc4)c(=O)n(Cc4cccs4)c3n2)CC1
Assayed System: Mitogen-activated protein kinase 10 (Mus musculus) (UniProt Q61831)
activity change, negative = inhibition: inactive
//
Compound: CCO[Si](CCCN)(OCC)OCC
Assayed System: Mitogen-activated protein kinase 10 (Mus musculus) (UniProt Q61831)
activity change, negative = inhibition: inactive
//
Compound: COc1ccccc1CNc1ccnc(-c2cccnc2)n1
Assayed System: Mitogen-activated protein kinase 10 (Mus musculus) (UniProt Q61831)
activity change, negative = inhibition: inactive
//
Compound: COc1ccc2[nH]cc(CCNc3ncncc3-c3ccccc3C(F)(F)F)c2c1
Assayed System: Mitogen-activated protein kinase 10 (Mus musculus) (UniProt Q61831)
activity change, negative = inhibition: inactive
//
Compound: Cc1noc(C)c1-c1nc(N2CCN(C)CC2)c2ccccc2n1
Assayed System: Mitogen-activated protein kinase 10 (Mus musculus) (UniProt Q61831)
activity change, negative = inhibition: inactive
//
Compound: Cc1ccc([N+](=O)[O-])c(C)c1
Assayed System: Mitogen-activated protein kinase 10 (Mus musculus) (UniProt Q61831)
activity change, negative = inhibition: inactive
//
Compound: CC(C)=CCC1=C(OCC(=O)O)C(=O)c2ccccc2C1=O
Assayed System: Mitogen-activated protein kinase 10 (Mus musculus) (UniProt Q61831)
activity change, negative = inhibition: 15.2% [at 11.4 µM] (inactive)
//
Compound: CN(Cc1ccco1)c1cc(-c2ccc3c(c2)OCO3)ncn1
Assayed System: Mitogen-activated protein kinase 10 (Mus musculus) (UniProt Q61831)
activity change, negative = inhibition: inactive
//
Compound: O=C(O)c1ccccc1C(c1ccc(O)cc1)c1ccc(O)cc1
Assayed System: Mitogen-activated protein kinase 10 (Mus musculus) (UniProt Q61831)
activity change, negative = inhibition: inactive
